B1: ALDH8A1 (parent)
chain: WSSRSPQERSRVLNQVADLLEQSL

- Variants of: B1
- experimental.protocol: protein stability index of a GFP-peptide fusion (GPS, HEK-293T) (PSI 1-6); higher = more stable;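 note: lentivirally expressed fusions sorted by FACS into six bins by GFP to DsRed ratio, PSI derived from sequencing read proportions per bin multiplied by bin number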
- test.context: c terminus: a fixed tail appended
measured.parameter: protein stability index
The response must contain the number and no unit.

Q: What measured protein stability index goes with `WSSRSPQERSRVLNQVADLLIQSL` ?
Result: 2.09

Q: What measured protein stability index goes with `WSSRSPQERSRVLNQVAKLLEQSL` ?
Result: 1.47

Q: What measured protein stability index goes with `WSSRSPQERSRQLNQVADLLEQSL` ?
Result: 3.45

Q: What measured protein stability index goes with `WSSRSPQYRSRVLNQVADLLEQSL` ?
Result: 2.71

Q: What measured protein stability index goes with `WSSRSPQERSEVLNQVADLLEQSL` ?
Result: 3.27

Q: What measured protein stability index goes with `WSSRSPQERSRVLNQCADLLEQSL` ?
Result: 2.98

Q: What measured protein stability index goes with `WSSRSPQERSRVLNQVADLLEMSL` ?
Result: 1.83

Q: What measured protein stability index goes with `WSSRSNQERSRVLNQVADLLEQSL` ?
Result: 2.6

Q: What measured protein stability index goes with `WSSQSPQERSRVLNQVADLLEQSL` ?
Result: 3.04

Q: What measured protein stability index goes with `WSSRSPQERSRVLNQVRDLLEQSL` ?
Result: 1.9

Q: What measured protein stability index goes with `WSSRSPQERHRVLNQVADLLEQSL` ?
Result: 2.58

Q: What measured protein stability index goes with `LSSRSPQERSRVLNQVADLLEQSL` ?
Result: 2.91

Q: What measured protein stability index goes with `WSSRSPQELSRVLNQVADLLEQSL` ?
Result: 2.48

Q: What measured protein stability index goes with `WSSRSPQERSRVLTQVADLLEQSL` ?
Result: 2.82

Q: What measured protein stability index goes with `WSSRSPQERWRVLNQVADLLEQSL` ?
Result: 2.82

Q: What measured protein stability index goes with `WSSHSPQERSRVLNQVADLLEQSL` ?
Result: 2.71

Q: What measured protein stability index goes with `WSSRSPLERSRVLNQVADLLEQSL` ?
Result: 1.91

Q: What measured protein stability index goes with `WLSRSPQERSRVLNQVADLLEQSL` ?
Result: 1.8

Q: What measured protein stability index goes with `WSQRSPQERSRVLNQVADLLEQSL` ?
Result: 2.52

Q: What measured protein stability index goes with `WSSRSPQERSGVLNQVADLLEQSL` ?
Result: 2.91

Q: What measured protein stability index goes with `WSSRSPQERSRVLNQVADLVEQSL` ?
Result: 3.03

Q: What measured protein stability index goes with `WSSDSPQERSRVLNQVADLLEQSL` ?
Result: 2.79
